A collection of molecules and their measured IC50
- target-system: Nav1.7 (or SCN9A) channel; HEK cells stably transfected with hSCN9A (Homo sapiens)
- Construct: expressed in transfected cells
- protocol-description: Nav1.7 block, PatchXpress 7000 automated whole-cell voltage clamp, estimated IC50 (EIC50)
- Assay type: cell-based
- protocol-conditions: estimated IC50; hSCN9A HEK cells, PatchXpress platform; Examples 283-814

>  <molecule>
N#Cc1cc(S(=O)(=O)Nc2cscn2)ccc1Oc1ccc(Cl)cc1-c1ccnn1C(F)(F)F [Example 399]

>  <IC50 (nM)>
1200

$$$$
>  <molecule>
N#Cc1cc(S(=O)(=O)Nc2ccc(F)cn2)ccc1Oc1ccccc1-c1nnco1 [Example 580]

>  <IC50 (nM)>
6900

$$$$
>  <molecule>
Cn1nccc1-c1ccc(F)cc1Oc1ccc(S(=O)(=O)Nc2nccs2)cc1C#N [Example 542]

>  <IC50 (nM)>
66

$$$$
>  <molecule>
N#Cc1cc(S(=O)(=O)Nc2ncns2)ccc1Oc1ccc(Br)cc1-c1cn[nH]c1 [Example 503]

>  <IC50 (nM)>
7

$$$$
>  <molecule>
N#Cc1cc(S(=O)(=O)Nc2ncns2)ccc1Oc1ccc(OC(F)(F)F)cc1-c1ccn[nH]1 [Example 793]

>  <IC50 (nM)>
3.1

$$$$

====

- target-system: Nav1.7 (or SCN9A) channel; HEK cells stably transfected with hSCN9A (Homo sapiens, UniProt Q15858)
- Construct: expressed in transfected cells
- Sequence (Q15858 whole entry): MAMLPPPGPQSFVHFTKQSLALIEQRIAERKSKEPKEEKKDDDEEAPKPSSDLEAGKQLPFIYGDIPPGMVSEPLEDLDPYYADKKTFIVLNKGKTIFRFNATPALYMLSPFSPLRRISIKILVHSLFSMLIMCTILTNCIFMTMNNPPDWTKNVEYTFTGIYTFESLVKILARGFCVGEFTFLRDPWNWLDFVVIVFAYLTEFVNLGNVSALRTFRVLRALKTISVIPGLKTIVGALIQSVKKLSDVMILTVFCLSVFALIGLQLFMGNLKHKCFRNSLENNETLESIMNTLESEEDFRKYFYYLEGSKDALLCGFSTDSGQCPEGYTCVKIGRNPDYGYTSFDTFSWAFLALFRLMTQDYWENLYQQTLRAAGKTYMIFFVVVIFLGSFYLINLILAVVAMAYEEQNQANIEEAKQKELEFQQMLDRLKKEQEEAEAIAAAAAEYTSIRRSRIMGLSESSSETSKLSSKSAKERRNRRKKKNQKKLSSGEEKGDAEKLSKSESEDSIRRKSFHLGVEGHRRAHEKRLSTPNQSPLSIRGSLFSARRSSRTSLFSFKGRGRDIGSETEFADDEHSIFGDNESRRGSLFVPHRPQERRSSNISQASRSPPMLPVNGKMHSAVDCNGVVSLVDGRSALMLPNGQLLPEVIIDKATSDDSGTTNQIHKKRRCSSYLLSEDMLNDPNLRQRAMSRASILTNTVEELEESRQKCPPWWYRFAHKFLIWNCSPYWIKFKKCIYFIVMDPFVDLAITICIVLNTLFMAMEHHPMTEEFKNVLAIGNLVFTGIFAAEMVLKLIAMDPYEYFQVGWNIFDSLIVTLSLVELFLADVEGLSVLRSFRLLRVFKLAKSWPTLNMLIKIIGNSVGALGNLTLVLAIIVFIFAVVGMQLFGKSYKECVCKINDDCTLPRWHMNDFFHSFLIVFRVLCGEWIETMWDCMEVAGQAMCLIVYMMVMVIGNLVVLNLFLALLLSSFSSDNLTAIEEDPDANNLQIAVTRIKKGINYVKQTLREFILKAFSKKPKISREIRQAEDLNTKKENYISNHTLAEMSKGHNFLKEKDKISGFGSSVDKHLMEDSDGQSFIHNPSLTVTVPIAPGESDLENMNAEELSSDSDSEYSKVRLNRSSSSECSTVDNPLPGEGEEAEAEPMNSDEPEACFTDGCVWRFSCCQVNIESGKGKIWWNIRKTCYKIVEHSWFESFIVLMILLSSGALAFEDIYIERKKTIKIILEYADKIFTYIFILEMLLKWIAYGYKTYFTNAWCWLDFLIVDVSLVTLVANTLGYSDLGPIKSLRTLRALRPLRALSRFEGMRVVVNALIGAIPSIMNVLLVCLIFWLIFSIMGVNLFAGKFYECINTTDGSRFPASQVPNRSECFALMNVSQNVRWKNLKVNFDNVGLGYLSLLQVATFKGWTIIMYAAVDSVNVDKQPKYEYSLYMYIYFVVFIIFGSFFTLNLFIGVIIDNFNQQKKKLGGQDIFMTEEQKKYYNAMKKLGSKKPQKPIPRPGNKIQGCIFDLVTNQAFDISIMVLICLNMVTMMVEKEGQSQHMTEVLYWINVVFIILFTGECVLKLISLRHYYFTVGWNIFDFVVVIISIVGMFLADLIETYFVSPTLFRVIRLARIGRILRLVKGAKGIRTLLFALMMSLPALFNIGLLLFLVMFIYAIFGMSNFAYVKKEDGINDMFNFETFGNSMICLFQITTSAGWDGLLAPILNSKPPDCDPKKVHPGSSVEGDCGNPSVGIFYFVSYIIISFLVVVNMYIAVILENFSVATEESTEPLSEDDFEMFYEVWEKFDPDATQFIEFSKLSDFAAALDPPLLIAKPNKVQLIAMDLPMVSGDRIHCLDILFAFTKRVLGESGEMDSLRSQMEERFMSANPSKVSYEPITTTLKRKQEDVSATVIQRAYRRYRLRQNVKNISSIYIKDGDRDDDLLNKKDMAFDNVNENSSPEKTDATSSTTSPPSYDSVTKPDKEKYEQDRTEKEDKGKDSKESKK
- protocol-description: Nav1.7 block, PatchXpress 7000 automated whole-cell voltage clamp, estimated IC50 (EIC50)
- Format: cell-based
- protocol-conditions: PatchXpress platform; hSCN9A HEK cells held at V1/2 of inactivation; estimated IC50
pIC50: −log10 of the molar value.
reported-metric: pIC50

>  <compound-structure>
N#Cc1cc(S(=O)(=O)Nc2ncns2)ccc1Oc1ccccc1-c1cccc(OC(F)(F)F)c1

>  <reported-metric>
pIC50

>  <readout-value>
6.04

$$$$
>  <compound-structure>
Cn1ccc(-c2ccc(Oc3ccc(S(=O)(=O)Nc4nccs4)cc3C#N)c(Cl)c2)n1

>  <reported-metric>
pIC50

>  <readout-value>
5.51

$$$$
>  <compound-structure>
COc1ccc(-c2ccccc2Oc2ccc(S(=O)(=O)Nc3ncns3)cc2C#N)cc1F

>  <reported-metric>
pIC50

>  <readout-value>
6.05

$$$$

====

- target-system: Nav1.7 (or SCN9A) channel; HEK cells stably transfected with hSCN9A (Homo sapiens, UniProt Q15858)
- Construct: expressed in transfected cells
- protocol-description: Nav1.7 block, PatchXpress 7000 automated whole-cell voltage clamp, estimated IC50 (EIC50)
- Format: cell-based
- protocol-conditions: estimated IC50; hSCN9A HEK cells, PatchXpress platform; Examples 283-814

>  <compound-structure>
CCn1nc(C(F)(F)F)cc1-c1ccc(Oc2ccc(S(=O)(=O)Nc3ncc(F)cn3)cc2C#N)cc1

>  <units-symbol>
nM

>  <censoring-qualifier>
=

>  <IC50>
1800

$$$$
>  <compound-structure>
CCn1nc(C(F)(F)F)cc1-c1ccc(Oc2ccc(S(=O)(=O)Nc3ncc(F)cc3F)cc2C#N)cc1

>  <units-symbol>
nM

>  <censoring-qualifier>
=

>  <IC50>
4900

$$$$
>  <compound-structure>
N#Cc1cc(S(=O)(=O)Nc2nccs2)ccc1Oc1cccc(-c2ccccc2)c1

>  <units-symbol>
nM

>  <censoring-qualifier>
=

>  <IC50>
470

$$$$
>  <compound-structure>
O=S(=O)(Nc1nccs1)c1ccc(Oc2ccc(OC(F)(F)F)cc2-c2cn[nH]c2)c(F)c1

>  <units-symbol>
nM

>  <censoring-qualifier>
=

>  <IC50>
80

$$$$
>  <compound-structure>
O=S(=O)(Nc1ncns1)c1cc(F)c(Oc2ccc(F)cc2-c2ccn[nH]2)cc1F

>  <units-symbol>
nM

>  <censoring-qualifier>
=

>  <IC50>
22

$$$$
>  <compound-structure>
CC(C)c1ccc(Oc2ccc(S(=O)(=O)Nc3nccs3)cc2C#N)c(-c2ccnn2C)c1

>  <units-symbol>
nM

>  <censoring-qualifier>
=

>  <IC50>
18

$$$$
>  <compound-structure>
O=S(=O)(Nc1ncns1)c1cc(F)c(Oc2cc(F)c(Cl)cc2-c2cn[nH]c2)cc1F

>  <units-symbol>
nM

>  <censoring-qualifier>
=

>  <IC50>
0.9

$$$$
>  <compound-structure>
N#Cc1cc(S(=O)(=O)Nc2nccs2)ccc1Oc1ccc(Cl)cc1-c1c[nH]nc1N

>  <units-symbol>
nM

>  <censoring-qualifier>
=

>  <IC50>
26

$$$$
>  <compound-structure>
CCOCn1nncc1-c1cc(Cl)ccc1Oc1ccc(S(=O)(=O)Nc2nccs2)cc1C#N

>  <units-symbol>
nM

>  <censoring-qualifier>
>

>  <IC50>
300

$$$$
>  <compound-structure>
N#Cc1cc(S(=O)(=O)Nc2ncns2)ccc1Oc1cc(Cl)c(F)cc1-c1cn[nH]c1

>  <units-symbol>
nM

>  <censoring-qualifier>
=

>  <IC50>
5.3

$$$$
>  <compound-structure>
O=S(=O)(Nc1ncns1)c1cc(F)c(Oc2ccc(C(F)(F)F)cc2-c2ccn[nH]2)cc1F

>  <units-symbol>
nM

>  <censoring-qualifier>
=

>  <IC50>
2.1

$$$$
>  <compound-structure>
CCc1nnc(C)n1-c1ccc(Oc2ccc(S(=O)(=O)Nc3ccc(F)cn3)cc2C#N)cc1

>  <units-symbol>
nM

>  <censoring-qualifier>
>

>  <IC50>
3000

$$$$
>  <compound-structure>
CCn1nc(C(F)(F)F)cc1-c1ccc(Oc2ncc(S(=O)(=O)Nc3nccs3)cc2Cl)cc1

>  <units-symbol>
nM

>  <censoring-qualifier>
=

>  <IC50>
210

$$$$
>  <compound-structure>
CCn1nc(C(F)(F)F)cc1-c1ccc(Oc2ccc(S(=O)(=O)Nc3nccs3)cc2C#N)c(F)c1

>  <units-symbol>
nM

>  <censoring-qualifier>
=

>  <IC50>
81

$$$$
>  <compound-structure>
O=S(=O)(Nc1cscn1)c1cc(Cl)c(Oc2ccc(Cl)cc2-c2cn[nH]c2)cc1F

>  <units-symbol>
nM

>  <censoring-qualifier>
=

>  <IC50>
77

$$$$
>  <compound-structure>
CN1CC(n2nccc2-c2cc(Cl)ccc2Oc2ccc(S(=O)(=O)Nc3cscn3)cc2C#N)C1

>  <units-symbol>
nM

>  <censoring-qualifier>
=

>  <IC50>
22

$$$$
>  <compound-structure>
N#Cc1cc(S(=O)(=O)Nc2nccs2)ccc1Oc1ccc(-n2cccn2)cc1C(F)(F)F

>  <units-symbol>
nM

>  <censoring-qualifier>
>

>  <IC50>
1000

$$$$
>  <compound-structure>
Nc1cc(-c2cc(C(F)(F)F)ccc2Oc2cc(F)c(S(=O)(=O)Nc3ncns3)cc2F)ccn1

>  <units-symbol>
nM

>  <censoring-qualifier>
=

>  <IC50>
2.3

$$$$
>  <compound-structure>
Cc1cn(C(F)F)nc1-c1ccc(Oc2ccc(S(=O)(=O)Nc3nccs3)cc2C#N)cc1

>  <units-symbol>
nM

>  <censoring-qualifier>
=

>  <IC50>
2700

$$$$
>  <compound-structure>
Cn1nc(C(F)(F)F)cc1-c1ccc(Oc2ccc(S(=O)(=O)Nc3ncc(F)s3)cc2C#N)c(Cl)c1

>  <units-symbol>
nM

>  <censoring-qualifier>
=

>  <IC50>
56

$$$$
>  <compound-structure>
CCn1nc(-c2ccc(Oc3ccc(S(=O)(=O)Nc4nccs4)cc3C#N)c(F)c2)cc1C(F)(F)F

>  <units-symbol>
nM

>  <censoring-qualifier>
>

>  <IC50>
1000

$$$$
>  <compound-structure>
Cn1nccc1-c1cc(C(F)(F)F)ccc1Oc1ccc(S(=O)(=O)Nc2ncns2)cc1C#N

>  <units-symbol>
nM

>  <censoring-qualifier>
=

>  <IC50>
56

$$$$

====

- target-system: Nav1.7 (or SCN9A) channel; HEK cells stably transfected with hSCN9A (Homo sapiens)
- Construct: expressed in transfected cells
- protocol-description: Nav1.7 block, PatchXpress 7000 automated whole-cell voltage clamp, estimated IC50 (EIC50)
- Type: cell-based
- protocol-conditions: estimated IC50; hSCN9A HEK cells, PatchXpress platform; Examples 283-814
Listing of entries alongside the reported IC50.

>  <compound-structure>
COCc1cnn(-c2ccc(Oc3ccc(S(=O)(=O)Nc4nccs4)cc3C#N)cc2)c1

>  <target-system>
Nav1.7 (or SCN9A) channel; HEK cells stably transfected with hSCN9A (Homo sapiens)

>  <censoring-qualifier>
>

>  <IC50 [nM]>
1000

$$$$
>  <compound-structure>
N#Cc1cc(S(=O)(=O)Nc2nccs2)ccc1Oc1cnn(-c2ccc(Cl)cc2Cl)c1

>  <target-system>
Nav1.7 (or SCN9A) channel; HEK cells stably transfected with hSCN9A (Homo sapiens)

>  <censoring-qualifier>
>

>  <IC50 [nM]>
1000

$$$$
>  <compound-structure>
O=S(=O)(Nc1cscn1)c1cc(Cl)c(Oc2cc(C(F)(F)F)ccc2-c2cncnc2)cc1F

>  <target-system>
Nav1.7 (or SCN9A) channel; HEK cells stably transfected with hSCN9A (Homo sapiens)

>  <censoring-qualifier>
>

>  <IC50 [nM]>
1000

$$$$
>  <compound-structure>
Cn1nccc1-c1ccc(C#N)cc1Oc1cc(F)c(S(=O)(=O)Nc2ncc(Cl)s2)cc1F

>  <target-system>
Nav1.7 (or SCN9A) channel; HEK cells stably transfected with hSCN9A (Homo sapiens)

>  <censoring-qualifier>
=

>  <IC50 [nM]>
2000

$$$$
>  <compound-structure>
O=S(=O)(Nc1cscn1)c1cc(Cl)c(Oc2cc(C(F)(F)F)ccc2-c2cccc(CO)c2)cc1F

>  <target-system>
Nav1.7 (or SCN9A) channel; HEK cells stably transfected with hSCN9A (Homo sapiens)

>  <censoring-qualifier>
=

>  <IC50 [nM]>
130

$$$$
>  <compound-structure>
CCn1nc(C(F)(F)F)c(Cl)c1-c1ccc(Oc2ccc(S(=O)(=O)Nc3nccs3)cc2C#N)cc1

>  <target-system>
Nav1.7 (or SCN9A) channel; HEK cells stably transfected with hSCN9A (Homo sapiens)

>  <censoring-qualifier>
=

>  <IC50 [nM]>
340

$$$$
